Biological target: FGFR3 kinase (Homo sapiens, UniProt P22607)
Sequence (P22607 23-806): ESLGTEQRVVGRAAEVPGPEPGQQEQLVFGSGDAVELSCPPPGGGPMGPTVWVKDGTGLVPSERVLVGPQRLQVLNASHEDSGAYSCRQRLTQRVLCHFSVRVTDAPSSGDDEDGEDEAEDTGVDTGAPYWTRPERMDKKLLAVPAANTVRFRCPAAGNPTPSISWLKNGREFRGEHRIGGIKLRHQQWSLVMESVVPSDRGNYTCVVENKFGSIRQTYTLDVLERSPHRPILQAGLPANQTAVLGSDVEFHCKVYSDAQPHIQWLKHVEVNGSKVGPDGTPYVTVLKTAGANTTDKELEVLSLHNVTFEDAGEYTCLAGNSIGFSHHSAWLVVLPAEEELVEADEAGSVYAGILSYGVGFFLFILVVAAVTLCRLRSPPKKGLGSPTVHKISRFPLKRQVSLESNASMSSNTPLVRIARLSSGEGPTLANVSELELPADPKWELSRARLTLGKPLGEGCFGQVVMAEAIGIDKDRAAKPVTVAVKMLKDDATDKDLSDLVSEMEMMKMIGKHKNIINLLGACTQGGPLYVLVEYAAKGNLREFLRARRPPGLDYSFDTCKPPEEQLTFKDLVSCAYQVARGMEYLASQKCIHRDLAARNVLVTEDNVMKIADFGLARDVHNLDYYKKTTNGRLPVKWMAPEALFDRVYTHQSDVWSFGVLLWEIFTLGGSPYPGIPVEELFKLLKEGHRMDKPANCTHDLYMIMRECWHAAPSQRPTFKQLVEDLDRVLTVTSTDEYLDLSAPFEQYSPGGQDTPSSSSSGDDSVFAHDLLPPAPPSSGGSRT
Experiment: Z-Lyte Kinase Assay of FGFR3
Assay type: biochemical
Conditions: Z-lyte
Description: Example 25: Z-Lyte Kinase Assay of FGFR3 • 1. Materials and Reagents: • 2. Reaction Steps: Plate Map • 3. […] IC50 Value: determined with add-in software for Microsoft Excel, XLfit™ (version 2.0) from ID Business Solutions (Guildford, UK)
measured_property: IC50 (nM)

Reference set (8 entries):
>>> df
                                   compound  measured_property  numeric_readout
0  CCN1CCN(c2ccc(Nc3ncc(OCc4cc(C(=O)NC)cc(OC)c4F)cn3)cc2OC)CC1 [Compound 283]               IC50                4
1  CNC(=O)c1cc(OC)c(F)c(COc2cnc(Nc3ccc(N4C[C@@H](C)N[C@@H](C)C4)nc3)nc2)c1F [Compound 278]               IC50               20
2  CNC(=O)c1cc(COc2cnc(Nc3ccc(N4C[C@@H](C)N[C@@H](C)C4)c(OC)c3)nc2)c(F)c(OC)c1 [Compound 282]               IC50                7
3  CNC(=O)c1cc(COc2cnc(Nc3ccc(N4C[C@@H](C)N(C)[C@@H](C)C4)cc3)nc2)c(Cl)c(OC)c1 [Compound 286]               IC50                9
4  CNC(=O)c1cc(COc2cnc(Nc3ccc(N4C[C@@H]5CCN(C)[C@@H]5C4)c(OC)c3)nc2)c(F)c(OC)c1 [Compound 293]               IC50               11
5  CNC(=O)c1cc(COc2cnc(Nc3ccc(O[C@@H]4O[C@H](CO)[C@@H](O)[C@H](O)[C@H]4O)cc3)nc2)c(Cl)c(OC)c1 [Compound 303]               IC50                7
6  CCN1[C@H](C)CN(c2ccc(Nc3ncc(OCc4cc(C(=O)NC)cc(OC)c4F)cn3)cn2)C[C@@H]1C [Compound 281]               IC50               19
7  CNC(=O)c1cc(OC)c(Cl)c(COc2cnc(Nc3ccc(N4C[C@@H](C)N[C@@H](C)C4)cc3)nc2)c1F [Compound 290]               IC50               11

(A) CNC(=O)c1cc(COc2cnc(Nc3ccc(N4CCN(C)CC4)c(OC)c3)nc2)c(Cl)c(OC)c1 [Compound 288]
(B) CNC(=O)c1cc(COc2cnc(Nc3cnc(N4C[C@@H](C)N[C@@H](C)C4)c(C)c3)nc2)c(Cl)c(OC)c1 [Compound 287]
Problem: Given the entries A and B , determine which has the lower reported IC50. Your choice should be expressed through its label.
A
(A: 4 nM, B: 8 nM)

###

Target: Recombinant human FGFR2 (Homo sapiens, UniProt P21802)
Sequence (P21802 22-821): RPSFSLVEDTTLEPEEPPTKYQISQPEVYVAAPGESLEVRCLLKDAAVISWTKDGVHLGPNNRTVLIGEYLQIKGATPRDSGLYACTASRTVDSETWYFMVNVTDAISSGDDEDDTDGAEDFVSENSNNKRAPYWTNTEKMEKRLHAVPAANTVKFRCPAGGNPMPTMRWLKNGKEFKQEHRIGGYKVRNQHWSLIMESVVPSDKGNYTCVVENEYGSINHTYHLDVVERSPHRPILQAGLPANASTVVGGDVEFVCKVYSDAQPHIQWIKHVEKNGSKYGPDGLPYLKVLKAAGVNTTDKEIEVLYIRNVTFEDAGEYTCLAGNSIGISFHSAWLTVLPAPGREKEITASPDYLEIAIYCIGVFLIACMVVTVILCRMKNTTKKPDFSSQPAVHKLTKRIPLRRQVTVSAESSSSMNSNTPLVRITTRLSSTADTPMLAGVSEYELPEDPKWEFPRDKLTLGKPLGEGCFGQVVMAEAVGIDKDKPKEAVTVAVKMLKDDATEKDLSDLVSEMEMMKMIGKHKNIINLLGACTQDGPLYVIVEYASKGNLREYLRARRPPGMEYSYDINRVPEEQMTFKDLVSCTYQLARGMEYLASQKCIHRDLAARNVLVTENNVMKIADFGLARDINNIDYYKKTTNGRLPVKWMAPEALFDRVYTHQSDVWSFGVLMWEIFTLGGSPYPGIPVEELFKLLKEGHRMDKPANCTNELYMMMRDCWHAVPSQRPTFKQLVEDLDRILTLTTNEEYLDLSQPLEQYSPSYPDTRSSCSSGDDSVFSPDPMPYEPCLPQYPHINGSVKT
Assay: Transcreener Kinase Assay of FGFR2
Type: biochemical
Conditions: read-out: FGFR2 (FP) IC50
measured_property: IC50 (nM)

The following compounds have reported results that may help.
                           substance_smiles  measured_property  unit  numeric_readout
0  CCN1CCN(c2ccc(Nc3ccc(CCc4cc(OC)cc(C(=O)NOC)c4)cn3)cc2)CC1               IC50    nM                8
1  CNC(=O)c1cc(COc2cnc(Nc3ccc(CN4CCOCC4)cc3)nc2)c(F)c(OC)c1               IC50    nM               10
2  CNC(=O)c1cc(COc2cnc(Nc3ccc4c(c3)NC(=O)C4(C)C)nc2)c(F)c(OC)c1               IC50    nM               32
3  CNC(=O)c1cc(COc2cnc(Nc3ccc([C@@H]4CCCNC4)nc3)nc2)c(Cl)c(OC)c1               IC50    nM               10
4  CNC(=O)c1cc(COc2cnc(Nc3cnn(C[C@H](O)CO)c3)nc2)c(F)c(OC)c1               IC50    nM               10

(I) CNC(=O)c1cc(CCc2cnc(Nc3ccc(O)cc3)nc2)c(Cl)c(OC)c1
(II) CCN(CC)CCc1cccc(Nc2ncc(OCc3cc(C(=O)NC)cc(OC)c3F)cn2)c1
Lab log: flag the item ( I or II ) with the smaller IC50 figure. In your reply, give the label of the chosen option.
II

###

Target: Recombinant human FGFR1 (Homo sapiens)
Sequence (P11362 22-822): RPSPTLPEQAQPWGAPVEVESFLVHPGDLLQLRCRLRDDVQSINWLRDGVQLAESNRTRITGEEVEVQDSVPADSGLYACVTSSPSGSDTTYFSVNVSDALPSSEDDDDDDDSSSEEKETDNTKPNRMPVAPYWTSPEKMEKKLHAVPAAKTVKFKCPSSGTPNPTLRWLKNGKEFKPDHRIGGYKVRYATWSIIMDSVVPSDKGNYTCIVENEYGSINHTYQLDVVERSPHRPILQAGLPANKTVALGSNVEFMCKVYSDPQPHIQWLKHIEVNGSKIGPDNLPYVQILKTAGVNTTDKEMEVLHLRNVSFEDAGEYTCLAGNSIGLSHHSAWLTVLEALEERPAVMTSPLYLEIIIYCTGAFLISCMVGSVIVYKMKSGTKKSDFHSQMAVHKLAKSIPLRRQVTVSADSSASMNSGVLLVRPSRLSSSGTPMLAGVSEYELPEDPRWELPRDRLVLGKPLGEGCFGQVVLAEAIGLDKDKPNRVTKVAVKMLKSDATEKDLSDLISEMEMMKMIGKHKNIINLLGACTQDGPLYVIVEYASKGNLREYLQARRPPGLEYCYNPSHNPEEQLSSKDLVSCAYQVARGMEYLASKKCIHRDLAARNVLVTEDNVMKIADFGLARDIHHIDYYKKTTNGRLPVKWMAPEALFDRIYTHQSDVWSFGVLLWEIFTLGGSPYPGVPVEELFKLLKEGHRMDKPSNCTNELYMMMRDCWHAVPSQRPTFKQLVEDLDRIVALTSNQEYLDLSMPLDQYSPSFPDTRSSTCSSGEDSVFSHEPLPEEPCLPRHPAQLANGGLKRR
Test: Transcreener Kinase Assay of FGFR1
Assay type: biochemical
Details: FP
measured_property: IC50 (nM)

(a) CNC(=O)c1cc(COc2cnc(Nc3ccc(N4CCN(C5CCCC5)CC4)c(OC)c3)nc2)c(F)c(OC)c1
(b) CNC(=O)c1cc(COc2cnc(Nc3ccc(N4C[C@@H](C)N(C)[C@@H](C)C4)cc3)nc2)c(Cl)c(OC)c1
Could you check which of a and b has a smaller value for IC50? Write down the label attached to your selection.
b

(1) CNC(=O)c1cc(OC)c(Cl)c(COc2cnc(Nc3ccc(N4C[C@@H](C)N[C@@H](C)C4)c(C)c3)nc2)c1F
(2) CNC(=O)c1cc(C#Cc2cnc(Nc3ccc(N4C[C@@H](C)N[C@@H](C)C4)c(OC)c3)nc2)c(F)c(OC)c1
In the pair 1 and 2 , the larger recorded IC50 belongs to which? Lab note: record the label of whichever item you select.
2

###

Target: Recombinant human FGFR2 (Homo sapiens)
Experiment: Transcreener Kinase Assay of FGFR2
Assay type: biochemical
Conditions: read-out: FGFR2 (FP) IC50
pIC50: −log10 of the molar value.
measured_property: pIC50

Some entries whose results are on file:
>>> df
                                   molecule  numeric_readout
0  CCCN1CC(c2ccc(Nc3ncc(OCc4cc(C(=O)NC)cc(OC)c4F)cn3)cc2)C1 [Compound 240]             7.64
1  C#Cc1ccc(Nc2ncc(OCc3cc(C(=O)NC)cc(OC)c3F)cn2)cn1 [Compound 211]             7.80

(a) CNC(=O)c1cc(OC)c(F)c(COc2cnc(Nc3cccc(N4C[C@@H](C)N[C@@H](C)C4)c3)nc2)c1F [Compound 275]
(b) CNC(=O)c1cc(CCc2cnc(Nc3cnn(C[C@H](C)O)c3)nc2)c(Cl)c(OC)c1 [Compound 88]
(c) CNC(=O)c1cc(COc2cnc(Nc3ccc(-c4cnn(C)c4)cc3)nc2)c(F)c(OC)c1 [Compound 228]
(d) CNC(=O)c1cc(COc2cnc(Nc3ccc(-n4nccn4)cc3)nc2)c(Cl)c(OC)c1 [Compound 233]
Sort by pIC50, descending. A complete answer lists every label in the requested sequence.
b, a, c, d

###

Test system: KG-1
Assay: Cellular Proliferation Assay (Cell Counting Kit-8), KG-1
Format: cell-based
Conditions: Homo sapiens; KG-1 cells, 72 hours; read-out: KG1 IC50
measured_property: pIC50
pIC50 here: minus log base 10 of the concentration, concentration in moles per litre.

Example entries and their recorded answers appear below.
                           substance_smiles  measured_property  numeric_readout
0  CCN1[C@H](C)CN(c2ccc(Nc3ncc(OCc4cc(C(=O)NC)cc(OC)c4F)cn3)cn2)C[C@@H]1C              pIC50             8.05
1  CNC(=O)c1cc(COc2cnc(Nc3ccc(N4CCOCC4)c(OC)c3)nc2)c(F)c(OC)c1              pIC50             7.72
2  CNC(=O)c1cc(COc2cnc(Nc3ccc(-n4cncn4)cc3)nc2)c(F)c(OC)c1              pIC50             7.46
3  CNC(=O)c1cc(COc2cnc(Nc3ccc([C@H]4CCCN(C(C)=O)C4)nc3)nc2)c(Cl)c(OC)c1              pIC50             7.15
4  CNC(=O)c1cc(CCc2cnc(Nc3ccc(N4C[C@@H](C)N(C)[C@@H](C)C4)cc3)nc2)c(Cl)c(OC)c1              pIC50             7.96

Which pIC50 is listed for CNC(=O)c1cc(CCc2cnc(Nc3ccc(N4CCN(C)CC4)c(OC)c3)nc2)c(F)c(OC)c1 ?
7.89

Data request, read-out pIC50, for CNC(=O)c1cc(COc2cnc(Nc3ccc(-n4ccnn4)cc3)nc2)c(F)c(OC)c1
7.28

Recorded pIC50 of CNC(=O)c1cc(COc2cnc(Nc3cccc(CCN4CCN(CCOC)CC4)c3)nc2)c(F)c(OC)c1 , please.
7.62

I'd like to know its pIC50. The compound in question is CNC(=O)c1cc(COc2cnc(Nc3ccc(CN4CCOCC4)cc3)nc2)c(F)c(OC)c1
8.00

For the compound CNC(=O)c1cc(COc2cnc(Nc3ccc(N4CCN(C)CC4)nc3)nc2)c(Cl)c(OC)c1 , what pIC50 is on record?
8.15

Fill blank: measured pIC50 of the compound CNC(=O)c1cc(COc2cnc(Nc3ccc(OC)c(OC)c3)nc2)c(F)c(OC)c1 is ____.
7.57
